All values here come from patent US12544374B2.

- tgt: wild type PRC2 (wtPRC2) complex (Homo sapiens (Human))
- assayRemarks: EZH2 LC-MS assay (LC-Qualified)
- Format: biochemical
- testConditions: (a) LC-Qualified assay
- Method: Representative compounds of the invention were serially and separately diluted 3-fold in DMSO to obtain twelve concentrations. […] Solutions (6 μL) of 80 nM wild type PRC2 (wtPRC2) complex and 60 μM SAM in reaction buffer (20 mM Tris, pH 8.0, 0.1% BSA, 0.01% Triton, 0.5 mM DTT) were added to the wells that were then incubated with the test compound for 20 min. […]
measureName: log10(IC50) (log10 of the value in µM)
The figures below represent log10 of IC50, where IC50 is stated in µM.

Item under review: `COc1nccc2ccc(N[C@H]3CC[C@H](CNc4ncc(NC(=O)CO)cn4)CC3)nc12` . Reported log10(IC50)?
-0.95

log10(IC50) lookup needed for `Clc1nccc2ccc(N[C@H]3CC[C@H](CNc4ncc(CNCC5COC5)cn4)CC3)nc12` , thanks.
-1.59

What log10(IC50) value was documented for this compound, `O=C(Cc1cnc(NC[C@H]2CC[C@H](Nc3ccc4ccnc(Cl)c4n3)CC2)nc1)NC1CCC1` ?
-1.27

// query log10(IC50) value for entry `CS(=O)(=O)N1CCN(Cc2cnc(NC[C@H]3CC[C@H](Nc4ccc5ccnc(Cl)c5n4)CC3)nc2)CC1`
-1.92

Suppose we examine the compound O=C(NCc1cnc(NC[C@H]2CC[C@H](Nc3ccc4ccnc(Cl)c4n3)CC2)nc1)C1CCN1 (stereo partly shown) ; what log10(IC50) value has been reported?
-1.42

Requested read-out: log10(IC50). Entry: `COc1nccc2ccc(N[C@H]3CC[C@H](CNc4ncc(C(=O)N5CCOCC5)cn4)CC3)nc12`
-0.71

Looking for the measured log10(IC50) of `OC1CN(Cc2cnc(NC[C@H]3CC[C@H](Nc4ccc5ccnc(Cl)c5n4)CC3)nc2)C1` , can you help?
-1.70

----------
- tgt: UniProtKB Q15910
- assayRemarks: ELISA (H3K27 methylation) assay in G401 cell
- Type: cell-based
- testConditions: (b) ELISA Qualified assay, 48 h
Response field label takes true (1) when IC50 is strictly below 0.03 µM and false (0) in all other cases.

Quick check: IC50 of `CNc1nccc2ccc(N[C@H]3CC[C@H](CNc4ncc(C(N)=O)cn4)CC3)nc12` under 0.03 µM?
false (0)

hey, is IC50 for `CNc1nccc2ccc(N[C@H]3CC[C@H](CNc4ncc(C#N)cn4)CC3)nc12` lower than 0.03 µM or not?
true (1)

Regarding `O=C(c1cnc(NC[C@H]2CC[C@H](Nc3ccc4ccnc(Cl)c4n3)CC2)nc1)N1CCNCC1` , kindly confirm whether its IC50 is beneath 0.03 µM.
false (0)

Problem: For the molecule `OCCc1cnc(NC[C@H]2CC[C@H](Nc3ccc4ccnc(Cl)c4n3)CC2)nc1` , is IC50 under 0.03 µM?
true (1)

Lab note: IC50 threshold 0.03 µM. Does this molecule come in strictly under it? `Nc1cnc(NC[C@H]2CC[C@H](Nc3ccc4ccnc(OC(F)F)c4n3)CC2)nc1`
false (0)

Lab log: compare recorded IC50 with 0.03 µM; is it strictly lower for `COc1nccc2ccc(N[C@H]3CC[C@H](CNc4ncc(CC(=O)NC5COC5)cn4)CC3)nc12` ?
true (1)

In the record for `N#Cc1cnc(NC[C@H]2CC[C@H](Nc3ccc4ccnc(Cl)c4n3)CC2)nc1` , is IC50 less than 0.03 µM?
false (0)

Determine whether this molecule shows IC50 lower than 0.03 µM (ties excluded): OCC1COC(c2cnc(NC[C@H]3CC[C@H](Nc4ccc5ccnc(Cl)c5n4)CC3)nc2)OC1 (mixture of isomers)
false (0)

Quick check: does CC(C(=O)N(C)C1COC1)c1cnc(NC[C@H]2CC[C@H](Nc3ccc4ccnc(Cl)c4n3)CC2)nc1 (mixture of isomers) have IC50 under 0.03 µM?
true (1)

Is IC50 of `CNc1nccc2ccc(N[C@H]3CC[C@H](CNc4ncc(N)cn4)CC3)nc12` strictly below 0.03 µM?
false (0)

Strictly below 0.03 µM: is that where IC50 of `O=C1OCCN1c1cnc(NC[C@H]2CC[C@H](Nc3ccc4ccnc(Cl)c4n3)CC2)nc1` sits?
false (0)

For this molecule, is IC50 lower than 0.03 µM? `O=C(Cc1cnc(NC[C@H]2CC[C@H](Nc3ccc4ccnc(Cl)c4n3)CC2)nc1)NC1COC1`
true (1)

IC50 under 0.03 µM? Item: `O=C(CO)Nc1cnc(NC[C@H]2CC[C@H](Nc3ccc4ccnc(Cl)c4n3)CC2)nc1`
false (0)

Please determine if `Nc1cnc(NC[C@H]2CC[C@H](Nc3ccc4ccnc(Cl)c4n3)CC2)nc1` is below 0.03 µM in terms of IC50.
false (0)

Lab log: compare recorded IC50 with 0.03 µM; is it strictly lower for `COC(=O)Nc1cnc(NC[C@H]2CC[C@H](Nc3ccc4ccnc(Cl)c4n3)CC2)nc1` ?
true (1)

API: query returns whether the molecule falls strictly under 0.03 µM in IC50. Query: COc1nccc2ccc(N[C@H]3CC[C@H](CNc4ncc(C(=O)NCC(C)O)cn4)CC3)nc12 (stereo partly drawn)
false (0)

Hello, is IC50 of the following molecule strictly smaller than 0.03 µM? Clc1nccc2ccc(NC3CCC(CNc4ncc(COC5COC5)cn4)CC3)nc12 (stereo not drawn)
true (1)

Answer whether the molecule `COc1nccc2ccc(N[C@H]3CC[C@H](CNc4ncc(C(=O)N5CCNCC5)cn4)CC3)nc12` has IC50 strictly less than 0.03 µM
false (0)

Answer whether the molecule COC1CC(NCc2cnc(NC[C@H]3CC[C@H](Nc4ccc5ccnc(Cl)c5n4)CC3)nc2)C1 (stereo partly drawn) has IC50 strictly less than 0.03 µM
false (0)

Strictly below 0.03 µM in IC50? `CS(=O)(=O)N1CCN(Cc2cnc(NC[C@H]3CC[C@H](Nc4ccc5ccnc(Cl)c5n4)CC3)nc2)CC1`
true (1)

Determine if `CN1CCN(C(=O)Cc2cnc(NC[C@H]3CC[C@H](Nc4ccc5ccnc(Cl)c5n4)CC3)nc2)CC1` shows IC50 strictly lower than 0.03 µM.
false (0)

Does `O=C(CCC(=O)N1CCOCC1)Nc1cnc(NC[C@H]2CC[C@H](Nc3ccc4ccnc(Cl)c4n3)CC2)nc1` have IC50 strictly under 0.03 µM?
false (0)

Hello, I'm reviewing records and need to know if IC50 of `O=C(Cc1cnc(NC[C@H]2CC[C@H](Nc3ccc4ccnc(Cl)c4n3)CC2)nc1)NC1CCC1` is below 0.03 µM. Could you check?
false (0)

Here's an entry: `Clc1nccc2ccc(N[C@H]3CC[C@H](CNc4ncc(CCNC5COC5)cn4)CC3)nc12` . Is its IC50 below 0.03 µM?
true (1)

Is it true that IC50 reported for `O=C(NCc1cnc(NC[C@H]2CC[C@H](Nc3ccc4ccnc(Cl)c4n3)CC2)nc1)C1COC1` is less than 0.03 µM?
false (0)

Say whether its IC50 is strictly beneath 0.03 µM. Entry: CC(C(=O)N1CC(O)C1)c1cnc(NC[C@H]2CC[C@H](Nc3ccc4ccnc(Cl)c4n3)CC2)nc1 (mixture of isomers)
false (0)

Strictly below 0.03 µM in IC50? `COc1nccc2ccc(N[C@H]3CC[C@H](CNc4ncc(C#N)cn4)CC3)nc12`
false (0)

----------
- tgt: wild type PRC2 (wtPRC2) complex (Homo sapiens (Human), UniProt Q15910)
- Sequence (Q15910 whole entry): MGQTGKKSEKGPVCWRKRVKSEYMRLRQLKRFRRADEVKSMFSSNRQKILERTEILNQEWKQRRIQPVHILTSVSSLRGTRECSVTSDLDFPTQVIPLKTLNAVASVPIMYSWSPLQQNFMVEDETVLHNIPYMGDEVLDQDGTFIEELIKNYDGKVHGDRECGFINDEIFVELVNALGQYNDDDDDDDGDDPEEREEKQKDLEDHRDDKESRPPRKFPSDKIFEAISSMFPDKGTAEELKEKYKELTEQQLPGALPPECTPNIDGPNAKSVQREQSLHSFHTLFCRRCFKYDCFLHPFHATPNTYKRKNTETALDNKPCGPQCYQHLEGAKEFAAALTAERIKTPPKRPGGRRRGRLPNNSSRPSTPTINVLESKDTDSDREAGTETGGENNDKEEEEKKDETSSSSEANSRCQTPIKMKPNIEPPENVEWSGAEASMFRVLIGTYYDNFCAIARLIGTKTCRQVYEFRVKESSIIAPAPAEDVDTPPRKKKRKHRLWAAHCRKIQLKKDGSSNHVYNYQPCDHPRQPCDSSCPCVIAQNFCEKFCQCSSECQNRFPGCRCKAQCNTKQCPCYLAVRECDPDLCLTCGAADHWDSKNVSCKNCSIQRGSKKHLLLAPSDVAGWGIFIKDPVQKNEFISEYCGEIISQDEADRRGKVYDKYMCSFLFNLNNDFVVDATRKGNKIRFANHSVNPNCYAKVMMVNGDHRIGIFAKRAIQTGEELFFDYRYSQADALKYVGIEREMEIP
- Sequence (Q15022 whole entry partner): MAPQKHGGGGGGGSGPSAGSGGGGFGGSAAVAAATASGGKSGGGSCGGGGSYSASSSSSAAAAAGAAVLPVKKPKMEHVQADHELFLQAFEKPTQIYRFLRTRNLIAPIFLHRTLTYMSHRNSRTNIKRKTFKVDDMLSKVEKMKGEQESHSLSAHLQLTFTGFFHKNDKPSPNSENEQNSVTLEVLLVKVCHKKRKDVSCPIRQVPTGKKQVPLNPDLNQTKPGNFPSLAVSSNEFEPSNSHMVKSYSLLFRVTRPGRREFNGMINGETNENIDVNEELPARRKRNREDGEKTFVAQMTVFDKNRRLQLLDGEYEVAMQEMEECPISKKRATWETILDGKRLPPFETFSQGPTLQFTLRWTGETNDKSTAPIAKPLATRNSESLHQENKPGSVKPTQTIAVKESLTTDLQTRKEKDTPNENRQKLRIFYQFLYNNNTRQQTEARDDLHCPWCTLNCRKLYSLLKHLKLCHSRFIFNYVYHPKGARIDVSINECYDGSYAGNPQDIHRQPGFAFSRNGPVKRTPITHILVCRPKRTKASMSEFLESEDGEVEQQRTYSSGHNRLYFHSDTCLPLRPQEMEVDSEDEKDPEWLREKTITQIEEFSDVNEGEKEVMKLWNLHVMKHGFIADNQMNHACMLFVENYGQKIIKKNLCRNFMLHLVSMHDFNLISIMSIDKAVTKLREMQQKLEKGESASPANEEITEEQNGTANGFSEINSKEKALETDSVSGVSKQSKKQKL
- Sequence (O75530 whole entry partner): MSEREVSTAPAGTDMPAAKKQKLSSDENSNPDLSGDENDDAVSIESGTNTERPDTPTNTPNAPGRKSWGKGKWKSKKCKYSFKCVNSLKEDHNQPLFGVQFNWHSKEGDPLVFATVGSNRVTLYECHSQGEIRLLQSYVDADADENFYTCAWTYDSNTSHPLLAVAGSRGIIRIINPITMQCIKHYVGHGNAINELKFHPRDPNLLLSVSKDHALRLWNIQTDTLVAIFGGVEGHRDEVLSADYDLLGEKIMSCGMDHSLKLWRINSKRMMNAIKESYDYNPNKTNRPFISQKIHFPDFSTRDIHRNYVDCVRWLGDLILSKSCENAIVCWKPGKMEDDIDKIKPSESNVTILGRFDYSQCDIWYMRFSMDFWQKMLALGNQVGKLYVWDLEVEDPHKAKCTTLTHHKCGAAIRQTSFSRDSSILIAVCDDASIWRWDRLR
- Sequence (Q09028 whole entry partner): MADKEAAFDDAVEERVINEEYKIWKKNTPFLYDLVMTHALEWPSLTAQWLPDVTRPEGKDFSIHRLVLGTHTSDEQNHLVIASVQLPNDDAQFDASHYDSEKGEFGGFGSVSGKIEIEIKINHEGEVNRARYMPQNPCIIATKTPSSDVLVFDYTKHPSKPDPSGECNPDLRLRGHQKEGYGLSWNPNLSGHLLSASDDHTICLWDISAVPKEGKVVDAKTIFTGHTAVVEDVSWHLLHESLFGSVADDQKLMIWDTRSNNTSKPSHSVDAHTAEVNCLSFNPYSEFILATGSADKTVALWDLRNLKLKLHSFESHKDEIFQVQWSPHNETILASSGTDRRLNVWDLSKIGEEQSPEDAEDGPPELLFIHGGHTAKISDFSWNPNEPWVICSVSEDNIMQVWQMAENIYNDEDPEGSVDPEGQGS
- Sequence (Q6ZN18 whole entry partner): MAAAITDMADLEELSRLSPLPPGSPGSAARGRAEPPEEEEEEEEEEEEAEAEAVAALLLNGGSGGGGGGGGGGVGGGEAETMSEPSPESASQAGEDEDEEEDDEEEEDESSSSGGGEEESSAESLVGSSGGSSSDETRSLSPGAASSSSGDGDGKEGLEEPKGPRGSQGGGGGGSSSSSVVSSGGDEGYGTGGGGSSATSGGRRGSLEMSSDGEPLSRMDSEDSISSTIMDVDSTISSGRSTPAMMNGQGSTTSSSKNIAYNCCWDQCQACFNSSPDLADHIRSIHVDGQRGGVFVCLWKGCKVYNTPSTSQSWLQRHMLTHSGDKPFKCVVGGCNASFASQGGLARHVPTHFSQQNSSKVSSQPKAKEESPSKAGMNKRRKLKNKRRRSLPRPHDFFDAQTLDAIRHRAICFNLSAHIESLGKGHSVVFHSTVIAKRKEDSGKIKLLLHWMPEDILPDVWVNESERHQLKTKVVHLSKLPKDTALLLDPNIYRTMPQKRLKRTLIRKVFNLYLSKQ
- assayRemarks: EZH2 LC-MS assay (LC-Qualified)
- Assay type: biochemical
- testConditions: (a) LC-Qualified assay
measureName: IC50
Field: value (include unit after the number)

Requested read-out: IC50. Entry: COc1nccc2ccc(N[C@H]3CC[C@H](CNc4ncc(C(=O)NCC(C)O)cn4)CC3)nc12 (some centres unmarked) [Compound C9]
0.105 µM

Can you share its IC50? I mean this molecule: O=C(Cc1cnc(NC[C@H]2CC[C@H](Nc3ccc4ccnc(Cl)c4n3)CC2)nc1)N1CC(O)C1 [Compound C38]
0.024 µM

Field request: IC50 | item: CNc1nccc2ccc(N[C@H]3CC[C@H](CNc4ncc(C#N)cn4)CC3)nc12 [Compound C60]
0.022 µM

Can you look up the measured IC50 of CCN(CCC#N)C(=O)Cc1cnc(NC[C@H]2CC[C@H](Nc3ccc4ccnc(Cl)c4n3)CC2)nc1 [Compound C50] for me?
0.023 µM

Give its IC50 value. Item: Nc1cnc(NC[C@H]2CC[C@H](Nc3ccc4ccnc(Cl)c4n3)CC2)nc1 [Compound C14]
0.116 µM

Entry O=C(NCc1cnc(NC[C@H]2CC[C@H](Nc3ccc4ccnc(Cl)c4n3)CC2)nc1)C1COC1 [Compound C59] : reported IC50 = ?
0.045 µM

Which IC50 reading was recorded for the molecule O=C(Cc1cnc(NC[C@H]2CC[C@H](Nc3ccc4ccnc(Cl)c4n3)CC2)nc1)N1CCNCC1 [Compound C41] ?
0.035 µM

Could you tell me which IC50 is on file for O=C(Cc1cnc(NC[C@H]2CC[C@H](Nc3ccc4ccnc(Cl)c4n3)CC2)nc1)N(CCO)C1COC1 [Compound C51] ?
0.038 µM

Dear colleague, I am looking for the recorded IC50 of the following molecule: O=S1(=O)CCN(Cc2cnc(NC[C@H]3CC[C@H](Nc4ccc5ccnc(Cl)c5n4)CC3)nc2)CC1 [Compound C30]
0.017 µM

Give the measured IC50 of O=C(Nc1cnc(NC[C@H]2CC[C@H](Nc3ccc4ccnc(Cl)c4n3)CC2)nc1)OCCO [Compound C17] .
0.088 µM

What value of measured IC50 is listed for N#Cc1cnc(NC[C@H]2CC[C@H](Nc3ccc4ccnc(Cl)c4n3)CC2)nc1 [Compound C21] ?
0.04 µM
